- run.description: Appearance of solutions in solubility study of variants
- Assay type: physicochemical
- assay.context: pH 7.5, 5 mg/ml
Square brackets hold non-standard residues; d marks the D form. Peptide text beside a SMILES is read from it.
experimental.readout: Appearance of solutions

CC(C)[C@H](NC(=O)[C@@H](NC(=O)[C@H](Cc1ccccc1)NC(=O)[C@@H](NC(=O)[C@@H](NC(=O)[C@H](Cc1ccccc1)NC(=O)[C@H](CO)NC(=O)[C@H](C)NC(=O)[C@H](CCCCN)NC(=O)CNC(=O)[C@H](CCC(=O)O)NC(=O)[C@@H](C)NC(=O)[C@@H](C)N)[C@@H](C)O)[C@@H](C)O)[C@@H](C)O)C(=O)N[C@H](C(=O)N[C@@H](CCCCN)C(=O)NCC(=O)N[C@@H](CO)C(=O)N[C@H](C)C(=O)N[C@H](C)C(N)=O)[C@@H](C)O [SEQ ID NO.7] (H-[dA][dA]EGKASFTTFTVTKGS[dA][dA]-NH2)
Clear
CC(=O)N[C@H](C)C(=O)N[C@H](C)C(=O)N[C@@H](CCC(=O)O)C(=O)NCC(=O)N[C@@H](CCCCN)C(=O)N[C@@H](C)C(=O)N[C@@H](CO)C(=O)N[C@@H](Cc1ccccc1)C(=O)N[C@H](C(=O)N[C@H](C(=O)N[C@@H](Cc1ccccc1)C(=O)N[C@H](C(=O)N[C@H](C(=O)N[C@H](C(=O)N[C@@H](CCCCN)C(=O)NCC(=O)N[C@@H](CO)C(=O)N[C@H](C)C(=O)N[C@H](C)C(N)=O)[C@@H](C)O)C(C)C)[C@@H](C)O)[C@@H](C)O)[C@@H](C)O [SEQ ID NO.8] (Ac-[dA][dA]EGKASFTTFTVTKGS[dA][dA]-NH2)
Clear
